Source of measurements: patent US20160200799A1

biological target: Influenza virus A/New Caledonia/20/1999 (H1N1) (Influenza A virus A/New Caledonia/20/1999 (H1N1)); test: ELISA on coated viral particles
readout.name: Binding activity (absorbance at 492 nm)
Response field accepts a number only; no unit should be typed.

Just so you know, measured Binding activity (absorbance at 492 nm) for Group 1 representative clone F080-227, Fab-cp3-type antibody (Fab, V domains shown) VH: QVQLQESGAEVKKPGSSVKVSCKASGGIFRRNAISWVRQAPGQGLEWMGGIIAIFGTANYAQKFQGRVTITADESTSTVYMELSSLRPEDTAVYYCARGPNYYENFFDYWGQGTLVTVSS VL: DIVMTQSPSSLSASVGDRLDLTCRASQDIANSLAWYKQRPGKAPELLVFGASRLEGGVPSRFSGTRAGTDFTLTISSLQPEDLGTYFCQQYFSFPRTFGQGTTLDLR came out at 3.15

Field Binding activity (absorbance at 492 nm) (entry Group 44 representative clone F081-008, Fab-cp3-type antibody (Fab, V domains shown) VH: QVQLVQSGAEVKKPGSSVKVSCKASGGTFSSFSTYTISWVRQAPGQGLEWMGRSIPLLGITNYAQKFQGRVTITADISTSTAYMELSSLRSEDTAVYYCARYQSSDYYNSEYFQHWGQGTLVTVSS VL: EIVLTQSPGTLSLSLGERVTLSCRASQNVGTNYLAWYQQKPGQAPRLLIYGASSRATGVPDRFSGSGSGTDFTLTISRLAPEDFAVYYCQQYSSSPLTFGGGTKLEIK ) reads 3.25

Noted for Group 52 representative clone F083-328, Fab-cp3-type antibody (Fab, V domains shown) VH: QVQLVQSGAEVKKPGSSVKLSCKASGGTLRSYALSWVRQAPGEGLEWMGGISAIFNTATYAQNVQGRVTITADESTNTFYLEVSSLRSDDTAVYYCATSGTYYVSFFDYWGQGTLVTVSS VL: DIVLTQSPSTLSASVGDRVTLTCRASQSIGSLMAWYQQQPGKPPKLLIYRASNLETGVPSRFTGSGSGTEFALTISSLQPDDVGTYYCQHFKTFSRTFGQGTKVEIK : its Binding activity (absorbance at 492 nm) reads 2.66

Noted for Group 47 representative clone F083-308, Fab-cp3-type antibody (Fab, V domains shown) VH: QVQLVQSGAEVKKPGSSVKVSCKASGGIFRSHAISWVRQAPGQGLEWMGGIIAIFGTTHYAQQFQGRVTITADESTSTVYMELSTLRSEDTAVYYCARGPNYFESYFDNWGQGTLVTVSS VL: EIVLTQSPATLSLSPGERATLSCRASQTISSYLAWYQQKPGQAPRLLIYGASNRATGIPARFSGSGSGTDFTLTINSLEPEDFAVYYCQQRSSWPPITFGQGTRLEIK : its Binding activity (absorbance at 492 nm) reads 1.79
